Test Summary: Inhibition of BRAF V600E mutant in human A375 cells assessed as reduction in cell proliferation incubated for 96 hrs by MTT assay
pIC50: −log10 of the molar value.
Readout Name: pIC50

Guide cases for pIC50, answers given:
[
  {
    "Compound Structure String": "CC(C)n1nc(C#Cc2cccc3cc(-c4ccc(CN5CCN(C)CC5)cc4)ncc23)c2c(N)ncnc21",
    "pIC50": "< 5.00"
  },
  {
    "Compound Structure String": "CCn1nc(C#Cc2cccc3cc(-c4cccc(C(F)(F)F)c4)ncc23)c2c(N)ncnc21",
    "pIC50": "< 5.00"
  }
]

Query (compound): `CC(C)n1nc(C#Cc2cccc3cc(-c4cccc(C(F)(F)F)c4)ncc23)c2c(N)ncnc21` ; field requested: pIC50
< 5.00
